Reference source: ChEMBL document CHEMBL2375244

Measurement Target: CDK1/Cyclin A (Homo sapiens)
Sequence (P06493 whole entry): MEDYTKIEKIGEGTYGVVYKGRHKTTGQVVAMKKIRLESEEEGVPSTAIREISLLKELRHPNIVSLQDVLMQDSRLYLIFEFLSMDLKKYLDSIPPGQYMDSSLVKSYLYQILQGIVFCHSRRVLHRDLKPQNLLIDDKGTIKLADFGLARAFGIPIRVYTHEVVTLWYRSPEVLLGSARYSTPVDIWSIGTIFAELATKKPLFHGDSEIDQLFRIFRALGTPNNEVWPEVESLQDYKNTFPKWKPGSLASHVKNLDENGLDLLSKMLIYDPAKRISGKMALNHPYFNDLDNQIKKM
Sequence (P20248 whole entry, further chain): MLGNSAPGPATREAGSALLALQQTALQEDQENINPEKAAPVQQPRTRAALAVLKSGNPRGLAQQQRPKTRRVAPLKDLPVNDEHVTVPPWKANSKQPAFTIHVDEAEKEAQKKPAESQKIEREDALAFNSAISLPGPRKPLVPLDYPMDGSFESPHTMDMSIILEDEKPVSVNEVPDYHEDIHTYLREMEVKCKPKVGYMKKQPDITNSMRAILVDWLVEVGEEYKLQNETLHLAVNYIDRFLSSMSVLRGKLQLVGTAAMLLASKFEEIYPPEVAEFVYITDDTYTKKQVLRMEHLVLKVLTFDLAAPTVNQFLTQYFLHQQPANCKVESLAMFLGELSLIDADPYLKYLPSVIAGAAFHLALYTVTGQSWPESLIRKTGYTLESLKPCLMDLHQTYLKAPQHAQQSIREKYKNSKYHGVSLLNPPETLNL
Protocol Details: Inhibition of CDK1/Cyclin A (unknown origin)-mediated phosphorylation of peptide substrate incubated for 15 mins prior to substrate addition measured after 90 mins by P33-radiolabeled assay
Property Label: IC50 (nM)
Supply the numeric figure in nM, leaving out any unit text.

If you can, please state the reported IC50 value of Nc1nc(Nc2ccc(S(N)(=O)=O)cc2)sc1C(=O)c1ccccc1[N+](=O)[O-] . 7.6

---

Measurement Target: CDK2/Cyclin A2 (Homo sapiens)
Protocol Details: Inhibition of human CDK2/Cyclin A2 using PKTPKKAKKL as substrate by PK/LDH spectrophotometric analysis
Format: protein-complex assay
Property Label: IC50 (µM)
Numeric only. Scale: µM

Need IC50 of C=CCNc1nc(N)c(C(=O)c2ccc(Cl)s2)s1 , thanks. 12

Look up IC50 for this compound: Nc1nc(Nc2cccc(S(N)(=O)=O)c2)sc1C(=O)c1cccnc1 7.8

Need IC50, item Nc1nc(Nc2ccc(S(N)(=O)=O)cc2)sc1C(=O)c1cc(C(F)(F)F)cc(C(F)(F)F)c1 25

Sample COC(=O)c1ccccc1C(=O)c1sc(Nc2ccc(S(N)(=O)=O)cc2)nc1N — what was its IC50? 32

Entry Nc1nc(Nc2ccccc2)sc1C(=O)c1ccc(F)cc1 has what IC50? 1.4

Quick check: IC50 of C=CCNc1nc(N)c(C(=O)c2cccc([N+](=O)[O-])c2)s1 ? 2.9

What value of IC50 has been reported for the following compound? Nc1nc(Nc2ccccc2)sc1C(=O)c1cccc([N+](=O)[O-])c1 2.2

Item under review: CCCNc1nc(N)c(C(=O)c2ccccc2)s1 . Reported IC50? 8.9

Record request: IC50 value, item CCNc1nc(N)c(C(=O)c2ccccc2)s1 17

Name the recorded IC50 for C=CCNc1nc(N)c(C(=O)c2ccc([N+](=O)[O-])cc2)s1 . 41

Return reported IC50; argument: Nc1nc(Nc2ccc(S(N)(=O)=O)cc2)sc1C(=O)c1cccc(O)c1 1.5

Query: IC50; subject: Nc1nc(Nc2ccc(S(N)(=O)=O)cc2)sc1C(=O)c1ccc([N+](=O)[O-])cc1 7.4
